The reader will find reported Activity values listed item by item below.
Target: Prostaglandin G/H synthase 2 (Homo sapiens) (UniProt P35354)
Sequence (P35354 whole entry): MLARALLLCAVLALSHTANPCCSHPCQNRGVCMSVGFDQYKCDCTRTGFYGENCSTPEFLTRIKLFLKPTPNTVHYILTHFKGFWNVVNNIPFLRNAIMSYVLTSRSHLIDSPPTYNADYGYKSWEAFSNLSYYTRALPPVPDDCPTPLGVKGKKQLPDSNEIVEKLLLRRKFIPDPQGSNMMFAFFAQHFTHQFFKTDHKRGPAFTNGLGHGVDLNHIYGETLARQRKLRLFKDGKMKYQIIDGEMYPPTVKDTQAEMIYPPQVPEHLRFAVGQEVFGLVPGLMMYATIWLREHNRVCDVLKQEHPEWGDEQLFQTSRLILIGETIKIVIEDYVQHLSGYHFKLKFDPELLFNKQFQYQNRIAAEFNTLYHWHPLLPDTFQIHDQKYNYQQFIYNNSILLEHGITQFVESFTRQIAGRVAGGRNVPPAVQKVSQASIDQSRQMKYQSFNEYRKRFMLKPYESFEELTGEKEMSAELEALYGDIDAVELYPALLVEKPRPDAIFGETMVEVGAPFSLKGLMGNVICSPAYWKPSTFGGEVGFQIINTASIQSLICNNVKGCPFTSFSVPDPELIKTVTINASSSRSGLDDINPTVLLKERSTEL
Assay: Inhibition of human recombinant COX2-mediated 12-HHT formation assessed as remaining activity at 10 uM preincubated for 5 mins before arachidonic acid addition by HPLC analysis

Some solved cases for reference:
>  <molecule>
CCCC/C(=C\c1cc(OCc2cc(C(F)(F)F)cc(C(F)(F)F)c2)ccc1OCc1ccc(C(F)(F)F)cc1)C(=O)O

>  <testedTarget>
Prostaglandin G/H synthase 2 (Homo sapiens) (UniProt P35354)

>  <Activity>
77.3%

$$$$
>  <molecule>
CCCC/C(=C\c1cc(OCC2CCC(C(F)(F)F)CC2)ccc1OCc1ccc(C(F)(F)F)cc1)C(=O)O (stereo not drawn)

>  <testedTarget>
Prostaglandin G/H synthase 2 (Homo sapiens) (UniProt P35354)

>  <Activity>
75.3%

$$$$
>  <molecule>
CCCC/C(=C\c1cc(OCc2ccc(Oc3ccccn3)cc2)ccc1OCc1ccc(C(F)(F)F)cc1)C(=O)O

>  <testedTarget>
Prostaglandin G/H synthase 2 (Homo sapiens) (UniProt P35354)

>  <Activity>
91.1%

$$$$
>  <molecule>
CCCC/C(=C\c1cc(OCc2csc(-c3ccc(C(F)(F)F)cc3)n2)ccc1OCc1ccc(C(F)(F)F)cc1)C(=O)O

>  <testedTarget>
Prostaglandin G/H synthase 2 (Homo sapiens) (UniProt P35354)

>  <Activity>
84.4%

$$$$
>  <molecule>
CCCC/C(=C\c1cc(OCc2ccc(OCCN3CCOCC3)cc2)ccc1OCc1ccc(C(F)(F)F)cc1)C(=O)O

>  <testedTarget>
Prostaglandin G/H synthase 2 (Homo sapiens) (UniProt P35354)

>  <Activity>
95%

$$$$
>  <molecule>
CCCC/C(=C\c1cc(OCCc2ccc(C(F)(F)F)cc2)ccc1OCc1ccc(C(F)(F)F)cc1)C(=O)O

>  <testedTarget>
Prostaglandin G/H synthase 2 (Homo sapiens) (UniProt P35354)

>  <Activity>
72.2%

$$$$

Exam item: Give a short answer stating reported Activity for CCCC/C(=C\c1cc(OCc2ccc3nc(C(F)(F)F)cc(OC)c3c2)ccc1OCc1ccc(C(F)(F)F)cc1)C(=O)O .
Marked response: 84.2%

Exam item: Name the recorded Activity of the item CCCC/C(=C\c1cc(OCc2ccccc2)ccc1OCc1ccc(C(F)(F)F)cc1)C(=O)O in your answer.
Marked response: 84.8%

Exam item: Check the records and state Activity for CCCC/C(=C\c1cc(OCC(c2ccccc2)c2ccccc2)ccc1OCc1ccc(C(F)(F)F)cc1)C(=O)O
Marked response: 79.5%

###

Target: UniProt O14684
Sequence (O14684 whole entry): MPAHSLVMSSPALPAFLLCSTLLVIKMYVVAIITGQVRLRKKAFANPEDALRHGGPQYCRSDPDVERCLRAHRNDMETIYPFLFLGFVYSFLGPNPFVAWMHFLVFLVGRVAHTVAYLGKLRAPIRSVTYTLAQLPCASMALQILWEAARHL
Assay: Inhibition of mPGES-1-mediated PGE2 formation in interleukin-1beta-stimulated human A549 microsomal membranes preincubated for 15 mins before PGH2 addition by RP-HPLC analysis
Each entry below carries its reported pIC50.
Field pIC50 (float): negative decimal logarithm of the concentration in molar.

Exam item: Using the record for CCCC/C(=C\c1cc(OCC2CCC(C(F)(F)F)CC2)ccc1OCc1ccc(C(F)(F)F)cc1)C(=O)O (stereo unspecified) , state its measured pIC50.
Marked response: 5.60

Exam item: Please report the measured pIC50 for CCCC/C(=C\c1cc(OC/C=C/c2ccccc2)ccc1OCc1ccc(C(F)(F)F)cc1)C(=O)O
Marked response: 5.30

###

Biological target: Peroxisome proliferator-activated receptor gamma (Homo sapiens) (UniProt P37231)
Sequence (whole entry): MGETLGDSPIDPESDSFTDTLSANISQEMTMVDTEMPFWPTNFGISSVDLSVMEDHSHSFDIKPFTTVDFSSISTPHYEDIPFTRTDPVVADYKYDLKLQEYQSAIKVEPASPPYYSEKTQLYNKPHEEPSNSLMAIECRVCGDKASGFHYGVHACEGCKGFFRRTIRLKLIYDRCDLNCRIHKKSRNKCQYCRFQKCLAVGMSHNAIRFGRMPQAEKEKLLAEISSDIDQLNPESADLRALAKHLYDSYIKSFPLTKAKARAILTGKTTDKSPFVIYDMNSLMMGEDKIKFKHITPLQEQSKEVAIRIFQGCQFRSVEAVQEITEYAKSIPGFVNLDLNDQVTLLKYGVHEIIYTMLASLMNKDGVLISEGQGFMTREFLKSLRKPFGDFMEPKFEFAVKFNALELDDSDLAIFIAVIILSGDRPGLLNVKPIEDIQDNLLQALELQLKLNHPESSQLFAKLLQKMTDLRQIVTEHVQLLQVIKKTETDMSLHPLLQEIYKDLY
Assay: Activation of human PPARgamma ligand binding domain expressed in COS7 cells by dual luciferase reporter gene assay relative to 1 uM pioglitazone
Format: cell-based
Details: COS-7
The entries below come with measured max activation values attached.

Worked examples follow.
>  <molecule>
CCCC/C(=C\c1cc(OCc2ccccc2)ccc1OCc1ccc(C(F)(F)F)cc1)C(=O)O

>  <max activation>
108%

$$$$
>  <molecule>
CCCC/C(=C\c1cc(OCc2ccc(OCCN3CCOCC3)cc2)ccc1OCc1ccc(C(F)(F)F)cc1)C(=O)O

>  <max activation>
66%

$$$$

Next up:
Exam item: Fetch value of max activation on Peroxisome proliferator-activated receptor gamma (Homo sapiens) (UniProt P37231) for CCCC/C(=C\c1cc(OCC2CCC(C(F)(F)F)CC2)ccc1OCc1ccc(C(F)(F)F)cc1)C(=O)O (centres undefined) .
Marked response: 158%

Taken from ChEMBL document CHEMBL3397016.
